Test system: Cryptococcus neoformans ATCC 34664
test details: Antifungal susceptibility by microbroth dilution (CLSI)
Type: cell-based
study conditions: Cryptococcus neoformans, ATCC34664; Table 1; 48 h, >90% inhibition of growth; read-out: MIC
MIC by entry:

compound | qualifying sign | MIC [µg/mL]
Cc1cc(C)cc(C(O)c2cn(-c3cc(Cl)ccc3O)nn2)c1 (stereo not drawn) | = | 32
CCC(O)(Cc1cn(-c2ccc(Cl)cc2O)nn1)c1ccccc1 (stereo not drawn) | = | 8
Oc1ccc(Cl)cc1-n1cc(CC(O)c2ccccc2)nn1 (stereo not drawn) | > | 128
Oc1ccc(Cl)cc1-n1cc(CC(O)(c2ccccc2)c2ccccc2)nn1 | > | 128
OC(Cn1cncn1)(Cn1cncn1)c1ccc(F)cc1F [Fluconazole, reference compound] | = | 32
Oc1ccc(Cl)cc1-n1cc(C(O)c2cc(C(F)(F)F)cc(C(F)(F)F)c2)nn1 (stereo not drawn) | = | 16
Cc1cc(C)cc(C(O)c2cn(-c3ccc(Cl)cc3O)nn2)c1 (stereo not drawn) | = | 32
CCC(O)(Cc1cn(-c2cc(Cl)ccc2O)nn1)c1ccccc1 (stereo not drawn) | = | 16
CC(O)(Cc1cn(-c2cc(Cl)ccc2O)nn1)c1ccccc1 (stereo not drawn) | = | 16

* * *

molecule | melting point
Oc1ccc(Cl)cc1-n1cc(CC(O)c2cc(C(F)(F)F)cc(C(F)(F)F)c2)nn1 (stereo not shown) | 181 to 183 °C
Oc1ccc(Cl)cc1-n1cc(C(O)c2cc(C(F)(F)F)cc(C(F)(F)F)c2)nn1 (stereo not shown) | 211 to 213 °C
CC(O)(Cc1cn(-c2ccc(Cl)cc2O)nn1)c1ccccc1 (stereo not shown) | 189 to 190 °C
Cc1cc(C)cc(C(O)c2cn(-c3cc(Cl)ccc3O)nn2)c1 (stereo not shown) | 191 to 193 °C

* * *

Tested on: Candida albicans ATCC 24433
test details: Antifungal susceptibility by microbroth dilution (CLSI)
Type: cell-based
study conditions: Candida albicans, ATCC24433; Table 2; read-out: MIC values
Listing of entries alongside the reported MIC.

molecule | system tested | MIC, µg/mL
CC(O)(Cc1cn(-c2cc(Cl)ccc2O)nn1)c1ccc(Br)cc1 (stereo not drawn) | Candida albicans ATCC 24433 | 4
CC(O)(Cc1cn(-c2cc(Cl)ccc2O)nn1)c1ccc(Cl)cc1Cl (stereo not drawn) | Candida albicans ATCC 24433 | 32
CC(O)(Cc1cn(-c2ccc(F)cc2O)nn1)c1ccc(Cl)cc1 (stereo not drawn) | Candida albicans ATCC 24433 | 8

* * *

Recorded measurements of melting point, one per entry

molecule | melting point
CC(O)(Cc1cn(-c2ccc(Cl)cc2O)nn1)c1cc(C(F)(F)F)cc(C(F)(F)F)c1 (centres unmarked) | 156 to 158 °C
Oc1cc(Cl)ccc1-n1cc(CC(O)c2ccccc2)nn1 (centres unmarked) | 171 to 172 °C
CCCCC(O)(Cc1cn(-c2cc(Cl)ccc2O)nn1)c1ccccc1 (centres unmarked) | 165 to 167 °C
Oc1cc(Cl)ccc1-n1cc(CC(O)c2cc(C(F)(F)F)cc(C(F)(F)F)c2)nn1 (centres unmarked) | 192 to 194 °C
Oc1cc(Cl)ccc1-n1cc(CC(O)(c2ccccc2)c2ccccc2)nn1 | 210 to 212 °C
